Ref: patent US20190010193A1

# TEST TARGET: C1q (human) (UniProt P02745)
# Sequence (P02745 23-245, chain 1 of 3): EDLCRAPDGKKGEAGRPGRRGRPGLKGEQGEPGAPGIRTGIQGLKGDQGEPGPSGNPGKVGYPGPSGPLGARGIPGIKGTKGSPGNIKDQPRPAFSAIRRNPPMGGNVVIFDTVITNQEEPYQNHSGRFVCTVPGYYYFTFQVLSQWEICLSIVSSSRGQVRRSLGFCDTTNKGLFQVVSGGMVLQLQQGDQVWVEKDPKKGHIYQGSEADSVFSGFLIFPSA
# Sequence (P02746 28-253, chain 2 of 3, further chain): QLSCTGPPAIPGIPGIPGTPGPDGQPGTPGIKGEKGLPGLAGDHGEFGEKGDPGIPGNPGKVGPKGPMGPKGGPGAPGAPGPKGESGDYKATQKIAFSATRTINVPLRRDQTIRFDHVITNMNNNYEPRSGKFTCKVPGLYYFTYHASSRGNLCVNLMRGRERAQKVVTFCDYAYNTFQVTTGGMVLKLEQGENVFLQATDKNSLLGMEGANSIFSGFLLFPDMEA
# Sequence (P02747 29-245, chain 3 of 3, further chain): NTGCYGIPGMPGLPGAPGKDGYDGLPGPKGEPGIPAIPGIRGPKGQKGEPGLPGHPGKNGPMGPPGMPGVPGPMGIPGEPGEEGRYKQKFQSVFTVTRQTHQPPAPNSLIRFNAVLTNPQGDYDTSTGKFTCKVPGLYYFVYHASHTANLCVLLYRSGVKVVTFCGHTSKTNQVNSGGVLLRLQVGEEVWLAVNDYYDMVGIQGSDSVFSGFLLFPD
# TEST DESCRIPTION: cell-based or functional assay
Ends that are not written are not given here.
Quick reference for Hemolysis (%), sensitized sheep RBCs, factor B-depleted human serum, peptide 0.77 mM among some binders
Your answer is read as %, so omit the unit and give the number.

Look over these answered cases.
IALILEPICCQERAA-dPEG03 (cysteine pairing not given here) [PA-dPEG03] ... 12.6
IALILEPICCQERAA-dPEG02 (cysteine pairing not given here) [PA-dPEG02] ... 11.6
IALILEPICCQERAA-dPEG04 (cysteine pairing not given here) [PA-dPEG04] ... 12.4
IALILEPICCQERAA-dPEG08 (cysteine pairing not given here) [PA-dPEG08] ... 34.7
IALILEPICCQERAA-dPEG06 (cysteine pairing not given here) [PA-dPEG06] ... 44.8
IALILEPICCQERAA-dPEG24 (cysteine pairing not given here) [PA-dPEG24] ... 2.99
IALILEPICCQERAA-dPEG16 (cysteine pairing not given here) [PA-dPEG16] ... 12
IALILEPICCQERAA-dPEG20 (cysteine pairing not given here) [PA-dPEG20] ... 11.4

Returns the measured Hemolysis (%), sensitized sheep RBCs, factor B-depleted human serum, peptide 0.77 mM for the input binder. Input: IALILEPICCQERAA-dPEG12 (cysteine pairing not given here) [PA-dPEG12] 11.4
